Provenance of the data: patent US20230135729A1

test system: spores of ATCC BBA1870 strain; assay: Inhibition of germination of C. difficile spores (MIC), strain ATCC BBA1870; type: cell-based; details: Clostridioides difficile, ATCCBBA1870STRAIN, 1 h; strain 1870; sodium taurocholate as germinant, BHIS medium, 37° C., OD580 for 60 min; read-out: MIC (minimum concentration that completely inhibits spore germination)
The following compounds are shown together with reported log10(MIC) values.
measurementLabel: log10(MIC) (log10 of the value in µM)

[[record]]
compound = "C[C@H](CC(=O)NCc1ccco1)[C@H]1CC[C@H]2[C@@H]3[C@H](O)C[C@@H]4C[C@H](O)CC[C@]4(C)[C@H]3CC[C@]12C"
system = "spores of ATCC BBA1870 strain"
reportedvalue = 1.20

[[record]]
compound = "CCCCCCCC(=O)O[C@@H]1C[C@@H]2CC(=O)CC[C@]2(C)[C@H]2CC[C@]3(C)[C@@H]([C@H](C)CC(=O)N[C@@H](c4ccc(Cl)s4)C(C)C)CC[C@H]3[C@H]12"
system = "spores of ATCC BBA1870 strain"
reportedvalue = 2.11

[[record]]
compound = "CC[C@@H](NC(=O)C[C@@H](C)[C@H]1CC[C@H]2[C@@H]3C(=O)C[C@@H]4CC(=O)CC[C@]4(C)[C@H]3CC[C@]12C)c1ccc(C=O)s1"
system = "spores of ATCC BBA1870 strain"
reportedvalue = 1.20

[[record]]
compound = "CC[C@@H](NC(=O)C[C@@H](C)[C@H]1CC[C@H]2[C@@H]3[C@H](OC(C)=O)CC4=CC(=O)CC[C@]4(C)[C@H]3CC[C@]12C)c1ccc(Br)s1"
system = "spores of ATCC BBA1870 strain"
reportedvalue = -0.60

[[record]]
compound = "CC(C)[C@@H](NC(=O)C[C@@H](C)[C@H]1CC[C@H]2[C@@H]3[C@H](N)C[C@@H]4C[C@H](O)CC[C@]4(C)[C@H]3CC[C@]12C)c1ccc(Cl)s1"
system = "spores of ATCC BBA1870 strain"
reportedvalue = 1.51

[[record]]
compound = "CC[C@@H](NC(=O)C[C@@H](C)[C@H]1CC[C@H]2[C@@H]3[C@H](O)C[C@@H]4C[C@@H](O)CC[C@]4(C)[C@H]3CC[C@]12C)c1ccc(Br)s1"
system = "spores of ATCC BBA1870 strain"
reportedvalue = 0.90

[[record]]
compound = "C[C@H](CC(=O)NCc1cccs1)[C@H]1CC[C@H]2[C@@H]3C(=O)C[C@@H]4CC(=O)CC[C@]4(C)[C@H]3CC[C@]12C"
system = "spores of ATCC BBA1870 strain"
reportedvalue = -0.30

[[record]]
compound = "C[C@H](CC(=O)NCc1ccco1)[C@H]1CC[C@H]2[C@@H]3[C@H](O)C[C@@H]4C[C@H](O)CC[C@]4(C)[C@H]3C[C@H](O)[C@]12C"
system = "spores of ATCC BBA1870 strain"
reportedvalue = 1.81

[[record]]
compound = "CC[C@@H](NC(=O)C[C@@H](C)[C@H]1CC[C@H]2[C@@H]3[C@H](O)C[C@@H]4CC(=O)CC[C@]4(C)[C@H]3CC[C@]12C)c1ccc(Br)s1"
system = "spores of ATCC BBA1870 strain"
reportedvalue = -0.60

[[record]]
compound = "CC(C)C(NC(=O)C[C@@H](C)[C@H]1CC[C@H]2[C@@H]3[C@H](O)C[C@@H]4CC(=O)CC[C@]4(C)[C@H]3CC[C@]12C)c1ccc(S(=O)(=O)O)s1 (stereo partly shown)"
system = "spores of ATCC BBA1870 strain"
reportedvalue = 1.51

[[record]]
compound = "CC[C@@H](NC(=O)C[C@@H](C)[C@H]1CC[C@H]2[C@@H]3C(=O)C[C@@H]4CC(=O)CC[C@]4(C)[C@H]3CC[C@]12C)c1ccc(C(C)=O)s1"
system = "spores of ATCC BBA1870 strain"
reportedvalue = 1.51

[[record]]
compound = "CCC(NC(=O)C[C@@H](C)[C@H]1CC[C@H]2[C@@H]3C(=O)C[C@@H]4CC(=O)CC[C@]4(C)[C@H]3CC[C@]12C)c1ccc(Cl)s1 (stereo partly shown)"
system = "spores of ATCC BBA1870 strain"
reportedvalue = 0.00

[[record]]
compound = "CC[C@@H](NC(=O)C[C@@H](C)[C@H]1CC[C@H]2[C@@H]3[C@H](O)C[C@@H]4C[C@H](O)CC[C@]4(C)[C@H]3C[C@H](O)[C@]12C)c1ccc(Cl)s1"
system = "spores of ATCC BBA1870 strain"
reportedvalue = 1.51


---

tested on: spores of ATCC 630 strain; assay: Inhibition of germination of C. difficile spores (MIC), strain ATCC 630; assay type: cell-based; conditions: Clostridioides difficile, ATCC630, 1 h; strain 630; sodium taurocholate as germinant, BHIS medium, 37° C., OD580 for 60 min; read-out: MIC (minimum concentration that completely inhibits spore germination)
Reported values of MIC for individual entries
measurementLabel: MIC

[[record]]
compound = "CC[C@@H](NC(=O)C[C@@H](C)[C@H]1CC[C@H]2[C@@H]3C(=O)C[C@@H]4CC(=O)CC[C@]4(C)[C@H]3CC[C@]12C)c1ccc(C=O)s1"
measurementlabel = "MIC"
reportedvalue = "16 µM"

[[record]]
compound = "CCCCCCCCCCCCCC(NC(=O)C[C@@H](C)[C@H]1CC[C@H]2[C@@H]3C(=O)C[C@@H]4CC(=O)CC[C@]4(C)[C@H]3CC[C@]12C)c1cccs1 (stereo partly drawn)"
measurementlabel = "MIC"
reportedvalue = "> 256 µM"

[[record]]
compound = "CC(C)C(NC(=O)C[C@@H](C)[C@H]1CC[C@H]2[C@@H]3C(=O)C[C@@H]4CC(=O)CC[C@]4(C)[C@H]3CC[C@]12C)c1cccs1 (stereo partly drawn)"
measurementlabel = "MIC"
reportedvalue = "2 µM"


---

test system: spores of ATCC 630 strain; assay: Inhibition of germination of C. difficile spores (MIC), strain ATCC 630; type: cell-based; details: Clostridioides difficile, ATCC630, 1 h; strain 630; sodium taurocholate as germinant, BHIS medium, 37° C., OD580 for 60 min; read-out: MIC (minimum concentration that completely inhibits spore germination)
Rule: MIC below 8 µM gives yes (1). Equal to or above 8 µM gives no (0).

[[record]]
compound = "CCC(NC(=O)C[C@@H](C)[C@H]1CC[C@H]2[C@@H]3C(=O)C[C@@H]4CC(=O)CC[C@]4(C)[C@H]3CC[C@]12C)c1ccc(Br)s1 (stereo partly shown)"
system = "spores of ATCC 630 strain"
cat = "yes (1)"

[[record]]
compound = "CC[C@@H](NC(=O)C[C@@H](C)[C@H]1CC[C@H]2[C@@H]3[C@H](O)C[C@@H]4C[C@H](O)CC[C@]4(C)[C@H]3CC[C@]12C)c1ccc(Cl)s1"
system = "spores of ATCC 630 strain"
cat = "yes (1)"

[[record]]
compound = "CC[C@@H](NC(=O)C[C@@H](C)[C@H]1CC[C@H]2[C@@H]3[C@H](O)C[C@@H]4C[C@H](O)CC[C@]4(C)[C@H]3C[C@H](O)[C@]12C)c1ccc(Cl)s1"
system = "spores of ATCC 630 strain"
cat = "no (0)"

[[record]]
compound = "CC[C@@H](NC(=O)C[C@@H](C)[C@H]1CC[C@H]2[C@@H]3[C@H](OC(=O)CCC(=O)O)C[C@@H]4CC(=O)CC[C@]4(C)[C@H]3CC[C@]12C)c1ccc(Cl)s1"
system = "spores of ATCC 630 strain"
cat = "yes (1)"

[[record]]
compound = "C[C@H](CC(=O)NCC1CC1)[C@H]1CC[C@H]2[C@@H]3[C@@H](O)C[C@@H]4C[C@H](O)CC[C@]4(C)[C@H]3CC[C@]12C"
system = "spores of ATCC 630 strain"
cat = "no (0)"

[[record]]
compound = "Cc1ccc(C(C)NC(=O)C[C@@H](C)[C@H]2CC[C@H]3[C@@H]4C(=O)C[C@@H]5CC(=O)CC[C@]5(C)[C@H]4CC[C@]23C)s1 (stereo partly shown)"
system = "spores of ATCC 630 strain"
cat = "yes (1)"

[[record]]
compound = "CC[C@H](NC(=O)C[C@@H](C)[C@H]1CC[C@H]2[C@@H]3C[C@H](O)[C@@H]4CC(=O)CC[C@]4(C)[C@H]3CC[C@]12C)c1ccc(Cl)s1"
system = "spores of ATCC 630 strain"
cat = "yes (1)"

[[record]]
compound = "CC[C@@H](NC(=O)C[C@@H](C)[C@H]1CC[C@H]2[C@@H]3[C@H](OC(C)=O)CC4=CC(=O)CC[C@]4(C)[C@H]3CC[C@]12C)c1ccc(Cl)s1"
system = "spores of ATCC 630 strain"
cat = "yes (1)"

[[record]]
compound = "C[C@H](CC(=O)NC(c1cccs1)c1cccs1)[C@H]1CC[C@H]2[C@@H]3C(=O)C[C@@H]4CC(=O)CC[C@]4(C)[C@H]3CC[C@]12C"
system = "spores of ATCC 630 strain"
cat = "no (0)"

